- PROTOCOL: Therapeutic index, ratio of CC50 for dog MDCK cells to IC50 for Influenza A virus A/[…]/3/1975 (H3N2)
- Assay type: toxicity
- STUDY CONDITIONS: read-out: Ratio CC50/IC50
VALUE KIND: selectivity ratio

# SMILES STRING, VALUE KIND, OPERATOR, VALUE REPORTED
data = [
    ("NC(=O)c1nc(F)cnc1O", "selectivity ratio", ">", 3),
    ("O=C(O)[C@H]1C2CCC(CC2)[C@@H]1Nc1nc(-c2c[nH]c3c(F)cc(Cl)cc23)ncc1F", "selectivity ratio", "=", 28),
    ("Cc1cc(F)c2[nH]cc(-c3ncc(F)c(N[C@H]4C5CCC(CC5)[C@@H]4C(=O)O)n3)c2c1", "selectivity ratio", "=", 25),
    ("N#Cc1cc(F)c2[nH]cc(-c3ncc(F)c(N[C@H]4C5CCC(CC5)[C@@H]4C(=O)O)n3)c2c1", "selectivity ratio", "=", 59),
]
